System: COLO 205
Assay: Cytotoxicity against human COLO205 cells assessed as growth inhibition after 24 hrs by MTT assay
Type: functional, cell-based
Conditions: COLO 205, 24 h
pIC50: −log10 of the molar value.
endpointName: pIC50

cpdsmiles=CC(C)(C)/[N+]([O-])=C/c1cn(CCC(F)(F)C(F)(F)C(F)(F)C(F)(F)C(F)(F)C(F)(F)C(F)(F)C(F)(F)F)nn1 endpointname=pIC50 boundoperator== measurednumber=4.54
cpdsmiles=CC(C)(C)/[N+]([O-])=C/c1cn(-c2ccccc2)nn1 endpointname=pIC50 boundoperator== measurednumber=4.82
cpdsmiles=COc1ccc(-n2cc(/C=[N+](\[O-])Cc3ccccc3)nn2)cc1 endpointname=pIC50 boundoperator=< measurednumber=4.00
cpdsmiles=CCCCCCCCn1cc(/C=[N+](\[O-])Cc2ccccc2)nn1 endpointname=pIC50 boundoperator=< measurednumber=4.00
cpdsmiles=[O-]/[N+](=C\c1cn(CCC(F)(F)C(F)(F)C(F)(F)C(F)(F)C(F)(F)C(F)(F)C(F)(F)C(F)(F)F)nn1)c1ccccc1 endpointname=pIC50 boundoperator=< measurednumber=4.00
cpdsmiles=[O-]/[N+](=C\c1cn(-c2ccc(C(F)(F)F)cc2)nn1)Cc1ccccc1 endpointname=pIC50 boundoperator=< measurednumber=4.00
cpdsmiles=[O-]/[N+](=C\c1cn(-c2ccccc2)nn1)c1ccccc1 endpointname=pIC50 boundoperator=< measurednumber=4.00
cpdsmiles=CCCCCCCCCCn1cc(/C=[N+](\[O-])c2ccccc2)nn1 endpointname=pIC50 boundoperator=< measurednumber=4.00
cpdsmiles=COc1ccc(-n2cc(/C=[N+](\[O-])C(C)(C)C)nn2)cc1 endpointname=pIC50 boundoperator== measurednumber=4.70
cpdsmiles=[O-]/[N+](=C\c1cn(-c2ccccc2)nn1)Cc1ccccc1 endpointname=pIC50 boundoperator=< measurednumber=4.00
cpdsmiles=CC(C)(C)/[N+]([O-])=C/c1cn(CCC(F)(F)C(F)(F)C(F)(F)C(F)(F)C(F)(F)C(F)(F)F)nn1 endpointname=pIC50 boundoperator== measurednumber=5.02
cpdsmiles=[O-]/[N+](=C\c1cn(-c2ccc(Cl)cc2)nn1)c1ccccc1 endpointname=pIC50 boundoperator== measurednumber=5.01
cpdsmiles=[O-]/[N+](=C\c1cn(-c2ccc(F)cc2)nn1)Cc1ccccc1 endpointname=pIC50 boundoperator=< measurednumber=4.00
cpdsmiles=[O-]/[N+](=C\c1cn(CCC(F)(F)C(F)(F)C(F)(F)C(F)(F)C(F)(F)C(F)(F)F)nn1)Cc1ccccc1 endpointname=pIC50 boundoperator=< measurednumber=4.00
cpdsmiles=CCCCCCCCCCn1cc(/C=[N+](\[O-])Cc2ccccc2)nn1 endpointname=pIC50 boundoperator=< measurednumber=4.00
cpdsmiles=CCCCCCCCn1cc(/C=[N+](\[O-])C(C)(C)C)nn1 endpointname=pIC50 boundoperator== measurednumber=4.51
cpdsmiles=[O-]/[N+](=C\c1cn(-c2ccc(F)cc2)nn1)c1ccccc1 endpointname=pIC50 boundoperator== measurednumber=4.99
cpdsmiles=CCCCCCCCCCn1cc(/C=[N+](\[O-])C(C)(C)C)nn1 endpointname=pIC50 boundoperator== measurednumber=4.66
cpdsmiles=CC(C)(C)/[N+]([O-])=C/c1cn(-c2ccc(F)cc2)nn1 endpointname=pIC50 boundoperator== measurednumber=4.23
cpdsmiles=[O-]/[N+](=C\c1cn(CCC(F)(F)C(F)(F)C(F)(F)C(F)(F)C(F)(F)C(F)(F)C(F)(F)C(F)(F)F)nn1)Cc1ccccc1 endpointname=pIC50 boundoperator== measurednumber=5.03
cpdsmiles=CC(C)(C)/[N+]([O-])=C/c1cn(-c2ccc(C(F)(F)F)cc2)nn1 endpointname=pIC50 boundoperator== measurednumber=4.35
